- Assay text: folding stability dG unfold (combined trypsin and chymotrypsin); higher = more stable
Recorded endpoint: folding stability dG unfold

Look over these answered cases.
SKKTIYIVNEDGSIIRFDEETGEITIFNKETGKEVKIKVEKKGNELIITIEVNGKKYKIKIPKGDIIPIKSA [r9_239_TrROS_Hall] = 3.68 kcal/mol
SAGGATTERTFTFPSSVSPEEAAAAVAAEAPPGLRVDVAPVATRADPSGVTTTTLRARFTDPAAPAAASAGG [r13_12_JUSTAS] = < -1 kcal/mol
SAGGSAGGSAGGNEDDNVPIGEKTVVKKVPPSSPVTITETIYRRPSTGTTSTTEKVIIESAGGSAGGSAGGS [r10_6_JUSTAS] = < -1 kcal/mol

# per-item lookup of folding stability dG unfold; items listed below
1. SAGGSEKKVLVLKFRHPENDKPLFSVRIVLEKPPEDSYKAKIELLDLPEDYVLSPEAIKAILEALKSAGGSA [r2_7_TrMRF]
2. SAGITLHPDARIILKNPSTGEKIELRSETIRRLIAEILGTDRPEEITAEQINAFALSLGFEEAEFEEPSAGG [r19_67_TrMRF]
3. SAGGSMRFKIEDINIGIIPHPPGWLLIPITVKVKFEEPDPDNGEPKTVEHEFPIMIMMPKDDLDDLSAGGSA [r2_184_TrROS]
4. SAGGSAGGSAGKKIPKKIIPKINLKVELVKSKIYYDKKKKKIVKIEYEFKITYPNGFKATSAGGSAGGSAGG [r11_890_TrMRF]

Resp:
1: 2.3 kcal/mol; 2: 3.02 kcal/mol; 3: 2.44 kcal/mol; 4: 1.83 kcal/mol

---

- Assay text: folding stability dG unfold from trypsin proteolysis; higher = more stable
Recorded endpoint: folding stability dG unfold (kcal/mol)
Answers are plain numbers, in kcal/mol.

# per-item lookup of folding stability dG unfold; items listed below
1. SAGGSAGGSAGGPRTLTLTVTLTRTYYDEETGEEVETETETLTLTLRLEPPPPLSPEQLSAGGSAGGSAGGS [r10_50_TrROS_Hall]
2. SAGGSAGGSAGGPMPVSVSPIGTKVEKTEEPLVVETTTTLSDAEGPPVTTTTTTVTPPSTSAGGSAGGSAGG [r11_129_JUSTAS]
3. SGMSMAKDAKPIYIEYRDPNGKSYRVTEVKVNEDGTLTITIEYPDSIKTYTLPPNANYPLSSSLILSTVESA [r9_993_JUSTAS]
4. SAGGSSSLAIITIKPKEIKSYYNPNNPVVVSEMEFEVDITIYSDNEISPEKVKELIEEIEKAFPGIKSAGGS [r8_306_TrMRF]
5. SAGGPKPILILPKNGKTETIPVPESMTLEEIIEIVKKAAEKYGFEKISYDPEKKVVTVYLKGKVIVTGSAGG [r13_572_TrMRF]
6. MPDISRAEIKALAEKLGLPVPDGTITIKFTYGDKTITVPVDAKKDITLGDIVEAIKKKNPNIKKIEIVAEPS [r1_135_TrMRF]

Resp:
1: 2.69; 2: 1.27; 3: 1.4; 4: 1.31; 5: 1.25; 6: 0.956

Req: I am curious: what folding stability dG unfold value has been reported for SAGGKLQLLLRSPDGNVEVALSFEKLPDGKVKVTATVRNKKTGRTYRLEVTFDLKTKKIEIKLEELPSAGGS [r16_684_TrROS_Hall] ?
Resp: 4.78
